test system: CAL-120-CDK12d-res; experiment: Proliferation assay CDK12 degrader resistant CAL-120; format: cell-based, human; conditions: resistant versus parental CAL-120 cells
Measurement Name: Ratio (Prolif-CAL-120-CDK12d-res IC50 / Prolif-CAL-120 IC50)
Give the figure by itself; no unit, no explanation.

Below, 8 compounds whose answers are already recorded.
| Compound | Assayed Target | Reported Measurement |
| --- | --- | --- |
| FC(F)(F)Oc1ccc(-c2nnc(CNc3nc(N4CCOCC4)nn4c(C(F)(F)F)cnc34)[nH]2)cn1 [Example 19] | CAL-120-CDK12d-res | 1.5 |
| FC(F)(F)c1ccc(-c2cnc(CNc3nc(N4CCOCC4)nc4c(C(F)(F)F)cnn34)[nH]2)cn1 [Example 24] | CAL-120-CDK12d-res | 1.3 |
| FC(F)(F)c1ccc(-c2cnc(CNc3nc(N4CCOCC4)nn4c(C(F)(F)F)cnc34)[nH]2)cn1 [Example 12] | CAL-120-CDK12d-res | 1.5 |
| FC(F)(F)c1ccc(-c2cnc(CNc3nc(N4CCOCC4)nc4c(C(F)(F)F)cnn34)[nH]2)cc1 [Example 9] | CAL-120-CDK12d-res | 1.0 |
| FC(F)(F)c1ccc(-c2cnc(CNc3nc(N4CCOCC4)nn4c(C(F)(F)F)cnc34)[nH]2)cc1 [Example 7] | CAL-120-CDK12d-res | 1.1 |
| FC(F)(F)Oc1ccc(-c2cnc(CNc3nc(N4CCOCC4)nn4c(C(F)(F)F)cnc34)[nH]2)cc1 [Example 8] | CAL-120-CDK12d-res | 1.9 |
| FC(F)(F)c1ccc(-c2nnc(CNc3nc(N4CCOCC4)nn4c(C(F)(F)F)cnc34)[nH]2)cn1 [Example 20] | CAL-120-CDK12d-res | 1.4 |
| FC(F)(F)Oc1ccc(-c2cnc(CNc3nc(N4CCOCC4)nc4c(C(F)(F)F)cnn34)[nH]2)cc1 [Example 10] | CAL-120-CDK12d-res | 2.0 |

// map COc1ccc(-c2nnc(CNc3nc(N4CCOCC4)nn4c(C(F)(F)F)cnc34)[nH]2)cn1 [Example 18] to recorded Ratio (Prolif-CAL-120-CDK12d-res IC50 / Prolif-CAL-120 IC50) (system: CAL-120-CDK12d-res) 2.4

What is its Ratio (Prolif-CAL-120-CDK12d-res IC50 / Prolif-CAL-120 IC50) for CAL-120-CDK12d-res? Entry: FC(F)(F)Oc1ccc(-c2nnc(CNc3nc(N4CCOCC4)nc4c(C(F)(F)F)cnn34)[nH]2)cn1 [Example 17] 1.5

----------
Recorded pIC50 by entry
system: CAL-120, human breast adenocarcinoma cells; assay: Proliferation assay CAL-120 (crystal violet); format: cell-based; conditions: 96 h, CAL-120 parental cells, 4 days, median, read-out: Prolif-CAL-120, IC50 - [mol/l] (median)
Keep in mind that pIC50 stands for -log10 of concentration in molar terms.

Some compounds with known pIC50 results, for comparison:
| Query Smiles | pIC50 |
| --- | --- |
| FC(F)(F)Oc1ccc(-c2cnc(CNc3nc(N4CCOCC4)nn4c(C(F)(F)F)cnc34)[nH]2)cc1 | 7.04 |
| FC(F)(F)c1ccc(-c2nnc(CNc3nc(N4CCOCC4)nn4c(C(F)(F)F)cnc34)[nH]2)cn1 | 7.08 |
| COc1ccc(-c2nnc(CNc3nc(N4CCOCC4)nn4c(C(F)(F)F)cnc34)[nH]2)cn1 | 6.98 |

Note: attention shifts to another entry.
Lookup: pIC50 / CAL-120, human breast adenocarcinoma cells / FC(F)(F)Oc1ccc(-c2cnc(CNc3nc(N4CCOCC4)nc4c(C(F)(F)F)cnn34)[nH]2)cc1 7.16
